- Test system: Escherichia coli
- experiment-summary: Antimicrobial activity against Escherichia coli INCQS 00033 ATCC 25922 assessed as zone of inhibition at 5 mg/ml after 18 to 24 hrs by disc diffusion method
- Assay type: functional
- test-settings: ATCC 25922 INCQS 00033, read-out: IZ
observation-type: zone of inhibition at 5000 µg/mL

INSERT INTO results (mol_smiles, result) VALUES
  ('CC1(C)O[C@H]2[C@@H](O1)[C@@H](CNC1=C(Br)C(=O)c3ccccc3C1=O)O[C@@H]1OC(C)(C)O[C@@H]12', '0 mm'),
  ('O=C(O)c1cn(C2CC2)c2cc(N3CCNCC3)c(F)cc2c1=O', '35 mm'),
  ('COC(=O)c1c(C)nc(C)c2c1C(=O)C=C(NC[C@H]1O[C@@H]3OC(C)(C)O[C@@H]3[C@H]3OC(C)(C)O[C@H]31)C2=O', '0 mm'),
  ('COC(=O)c1c(C)nc(C)c2c1C(=O)C(Cl)=C(NC[C@H]1O[C@@H](OC)[C@@H]3OC(C)(C)O[C@@H]31)C2=O', '0 mm'),
  ('NC1=CC(=O)c2ccccc2C1=O', '20 mm');

---

- System: Staphylococcus epidermidis
- experiment-summary: Ratio of MBC99.9 to MIC for Staphylococcus epidermidis INCQS 00016 ATCC 12228
- Format: functional, ATCC 12228 INCQS 00016
The following molecules are shown together with reported Ratio values.
observation-type: Ratio

INSERT INTO assay_data (mol_smiles, observation_type, quantitative_result) VALUES
  ('COC(=O)c1c(C)nc(C)c2c1C(=O)C(Br)=C(N)C2=O', 'Ratio', 1),
  ('NC1=CC(=O)c2ccccc2C1=O', 'Ratio', 1),
  ('COC(=O)c1c(C)nc(C)c2c1C(=O)C=C(NC[C@H]1O[C@@H]3OC(C)(C)O[C@@H]3[C@H]3OC(C)(C)O[C@H]31)C2=O', 'Ratio', 1);

---

- System: Escherichia coli
- experiment-summary: Antimicrobial activity against Escherichia coli INCQS 00033 ATCC 25922 assessed as zone of inhibition at 5 mg/ml after 18 to 24 hrs by disc diffusion method
- Assay type: functional
- test-settings: ATCC 25922 INCQS 00033, read-out: IZ
Note to self: values exactly at 10 mm are label 1. So zone of inhibition at 5000 µg/mL at or above 10 mm is label 1, below is label 0.

INSERT INTO assay_data (mol_smiles, experimental_system, assigned_category) VALUES
  ('COC(=O)c1c(C)nc(C)c2c1C(=O)C(Br)=C(NC[C@H]1O[C@@H](OC)[C@@H]3OC(C)(C)O[C@@H]31)C2=O', 'Escherichia coli', 'label 1'),
  ('CC1(C)O[C@H]2O[C@H](CNC3=C(Br)C(=O)c4ccccc4C3=O)[C@H](O)[C@H]2O1', 'Escherichia coli', 'label 1'),
  ('COC(=O)c1c(C)nc(C)c2c1C(=O)C(Br)=C(NC[C@H]1O[C@@H]3OC(C)(C)O[C@@H]3[C@H]1O)C2=O', 'Escherichia coli', 'label 0'),
  ('CC1(C)O[C@H]2O[C@H](CNC3=CC(=O)c4ccccc4C3=O)[C@H](O)[C@H]2O1', 'Escherichia coli', 'label 0'),
  ('COC(=O)c1c(C)nc(C)c2c1C(=O)C(Br)=C(N)C2=O', 'Escherichia coli', 'label 1'),
  ('CC1(C)O[C@H]2[C@@H](O1)[C@@H](CNC1=CC(=O)c3ccccc3C1=O)O[C@@H]1OC(C)(C)O[C@@H]12', 'Escherichia coli', 'label 0'),
  ('COC(=O)c1c(C)nc(C)c2c1C(=O)C(Cl)=C(N)C2=O', 'Escherichia coli', 'label 0'),
  ('COC(=O)c1c(C)nc(C)c2c1C(=O)C(Cl)=C(NC[C@H]1O[C@@H]3OC(C)(C)O[C@@H]3[C@H]3OC(C)(C)O[C@H]31)C2=O', 'Escherichia coli', 'label 0'),
  ('COC(=O)c1c(C)nc(C)c2c1C(=O)C=C(NC[C@H]1O[C@@H]3OC(C)(C)O[C@@H]3[C@H]1O)C2=O', 'Escherichia coli', 'label 0'),
  ('CC1(C)O[C@H]2O[C@H](CNC3=C(Cl)C(=O)c4ccccc4C3=O)[C@H](O)[C@H]2O1', 'Escherichia coli', 'label 1'),
  ('COC(=O)c1c(C)nc(C)c2c1C(=O)C=C(NC[C@H]1O[C@@H](OC)[C@@H]3OC(C)(C)O[C@@H]31)C2=O', 'Escherichia coli', 'label 0'),
  ('COC(=O)c1c(C)nc(C)c2c1C(=O)C(Cl)=C(NC[C@H]1O[C@@H]3OC(C)(C)O[C@@H]3[C@H]1O)C2=O', 'Escherichia coli', 'label 0'),
  ('COC(=O)c1c(C)nc(C)c2c1C(=O)C(Br)=C(NC[C@H]1O[C@@H]3OC(C)(C)O[C@@H]3[C@H]3OC(C)(C)O[C@H]31)C2=O', 'Escherichia coli', 'label 0'),
  ('CC1(C)O[C@H]2[C@@H](O1)[C@@H](CNC1=C(Cl)C(=O)c3ccccc3C1=O)O[C@@H]1OC(C)(C)O[C@@H]12', 'Escherichia coli', 'label 1');

---

MBC overview
- Tested on: Pseudomonas aeruginosa
- experiment-summary: Bactericidal activity against Pseudomonas aeruginosa INCQS 00099 ATCC 27853 incubated for 24 hrs followed by transfer of microbial suspension to agar plates and measured after 24 hrs post transfer by resazurin dye-based colorimetric analysis
- Assay type: functional
- test-settings: INCQS 00099 ATCC 27853, 24 h, read-out: MBC99.9
observation-type: MBC (µg/mL)

INSERT INTO results (mol_smiles, observation_type, quantitative_result) VALUES
  ('CO[C@@H]1O[C@H](CNC2=C(Cl)C(=O)c3ccccc3C2=O)[C@H]2OC(C)(C)O[C@@H]12', 'MBC', 32),
  ('COC(=O)c1c(C)nc(C)c2c1C(=O)C(Br)=C(NC[C@H]1O[C@@H](OC)[C@@H]3OC(C)(C)O[C@@H]31)C2=O', 'MBC', 8),
  ('NC1=C(Br)C(=O)c2ccccc2C1=O', 'MBC', 32),
  ('CC1(C)O[C@H]2O[C@H](CNC3=C(Cl)C(=O)c4ccccc4C3=O)[C@H](O)[C@H]2O1', 'MBC', 8),
  ('CC1(C)O[C@H]2[C@@H](O1)[C@@H](CNC1=C(Cl)C(=O)c3ccccc3C1=O)O[C@@H]1OC(C)(C)O[C@@H]12', 'MBC', 32),
  ('NC1=CC(=O)c2ccccc2C1=O', 'MBC', 64),
  ('CC1(C)O[C@H]2O[C@H](CNC3=C(Br)C(=O)c4ccccc4C3=O)[C@H](O)[C@H]2O1', 'MBC', 16),
  ('CO[C@@H]1O[C@H](CNC2=C(Br)C(=O)c3ccccc3C2=O)[C@H]2OC(C)(C)O[C@@H]12', 'MBC', 34),
  ('COC(=O)c1c(C)nc(C)c2c1C(=O)C(Br)=C(N)C2=O', 'MBC', 32),
  ('NC1=C(Cl)C(=O)c2ccccc2C1=O', 'MBC', 16);

---

zone of inhibition at 5000 µg/mL for assorted molecules
- Tested on: Staphylococcus aureus
- experiment-summary: Antimicrobial activity against Staphylococcus aureus INCQS 00015 ATCC 25923 assessed as zone of inhibition at 5 mg/ml after 18 to 24 hrs by disc diffusion method
- Assay type: functional
- test-settings: read-out: IZ
observation-type: zone of inhibition at 5000 µg/mL (mm)

INSERT INTO measurements (mol_smiles, experimental_system, observation_type, scale_unit, quantitative_result) VALUES
  ('CO[C@@H]1O[C@H](CNC2=C(Cl)C(=O)c3ccccc3C2=O)[C@H]2OC(C)(C)O[C@@H]12', 'Staphylococcus aureus', 'zone of inhibition at 5000 µg/mL', 'mm', 0),
  ('COC(=O)c1c(C)nc(C)c2c1C(=O)C=C(NC[C@H]1O[C@@H](OC)[C@@H]3OC(C)(C)O[C@@H]31)C2=O', 'Staphylococcus aureus', 'zone of inhibition at 5000 µg/mL', 'mm', 0),
  ('CO[C@@H]1O[C@H](CNC2=C(Br)C(=O)c3ccccc3C2=O)[C@H]2OC(C)(C)O[C@@H]12', 'Staphylococcus aureus', 'zone of inhibition at 5000 µg/mL', 'mm', 8),
  ('CC1(C)O[C@H]2[C@@H](O1)[C@@H](CNC1=C(Cl)C(=O)c3ccccc3C1=O)O[C@@H]1OC(C)(C)O[C@@H]12', 'Staphylococcus aureus', 'zone of inhibition at 5000 µg/mL', 'mm', 9),
  ('COC(=O)c1c(C)nc(C)c2c1C(=O)C=C(NC[C@H]1O[C@@H]3OC(C)(C)O[C@@H]3[C@H]3OC(C)(C)O[C@H]31)C2=O', 'Staphylococcus aureus', 'zone of inhibition at 5000 µg/mL', 'mm', 0),
  ('CC1(C)O[C@H]2[C@@H](O1)[C@@H](CNC1=CC(=O)c3ccccc3C1=O)O[C@@H]1OC(C)(C)O[C@@H]12', 'Staphylococcus aureus', 'zone of inhibition at 5000 µg/mL', 'mm', 0),
  ('COC(=O)c1c(C)nc(C)c2c1C(=O)C(Cl)=C(N)C2=O', 'Staphylococcus aureus', 'zone of inhibition at 5000 µg/mL', 'mm', 15),
  ('COC(=O)c1c(C)nc(C)c2c1C(=O)C=C(N)C2=O', 'Staphylococcus aureus', 'zone of inhibition at 5000 µg/mL', 'mm', 0);
